# Test system: Candida albicans SNY425 biofilm
# procedureSummary: biofilm OD600 with compound plus antifungal (OD600 (absorbance)); higher = more biofilm remaining
# testContext: assay detail: disruption of 24-h mature biofilm (compound + antifungal for a second 24 h)
measureName: biofilm OD600
Lab note: write the figure by itself, no unit.

Reference set, count: 2
INSERT INTO assay_data (compound, targetentity, quantitativereadout) VALUES
  ('CC(C)CCNC(=O)[C@H](CC(C)C)NC(=O)[C@H]1O[C@@H]1C(=O)O + OC(Cn1cncn1)(Cn1cncn1)c1ccc(F)cc1F [fluconazole] (first compound 12.5 µM)', 'Candida albicans SNY425 biofilm', 0.25),
  ('CC1CNc2c(cccc2S(=O)(=O)N[C@@H](CCCNC(=N)N)C(=O)N2CC[C@@H](C)C[C@@H]2C(=O)O)C1 (stereo partly drawn) [Argatroban] + C[C@@H]1[C@H](O)[C@@H](C)/C=C/C=C/C=C/C=C/C=C/C=C/C=C/[C@H](O[C@@H]2O[C@H](C)[C@@H](O)[C@H](N)[C@@H]2O)C[C@@H]2O[C@](O)(C[C@@H](O)C[C@@H](O)[C@H](O)CC[C@@H](O)C[C@@H](O)CC(=O)O[C@H]1C)C[C@H](O)[C@H]2C(=O)O [amphotericin B] (first compound 12.5 µM)', 'Candida albicans SNY425 biofilm', 0.3);

stdin: Give its biofilm OD600 value. Item: NC(N)=NCCC[C@H](NC(=O)[C@@H]1CCCN1C(=O)[C@H](N)Cc1ccccc1)C(=O)CCl + CC[C@H](C)C[C@H](C)CCCCCCCCC(=O)N[C@H]1C[C@@H](O)[C@@H](NCCN)NC(=O)[C@@H]2[C@@H](O)CCN2C(=O)[C@H]([C@H](O)CCN)NC(=O)[C@H]([C@H](O)[C@@H](O)c2ccc(O)cc2)NC(=O)[C@@H]2C[C@@H](O)CN2C(=O)[C@H]([C@@H](C)O)NC1=O [caspofungin] (first compound 12.5 µM)
stdout: 0.274

---

Each entry below lists one item and its recorded biofilm OD600 value.
# Test system: Candida albicans SNY425 biofilm
# procedureSummary: biofilm OD600 with compound plus antifungal (OD600 (absorbance)); higher = more biofilm remaining
# testContext: assay detail: sustained inhibition (compound + antifungal during 90-min adherence and 24-h growth)
Lab note: write the figure by itself, no unit.

stdin: # query: biofilm OD600 | item Cc1cccc(C)c1OCC(=O)N[C@@H](Cc1ccccc1)[C@@H](O)C[C@H](Cc1ccccc1)NC(=O)[C@H](C(C)C)N1CCCNC1=O [lopinavir] + CC[C@H](C)C[C@H](C)CCCCCCCCC(=O)N[C@H]1C[C@@H](O)[C@@H](NCCN)NC(=O)[C@@H]2[C@@H](O)CCN2C(=O)[C@H]([C@H](O)CCN)NC(=O)[C@H]([C@H](O)[C@@H](O)c2ccc(O)cc2)NC(=O)[C@@H]2C[C@@H](O)CN2C(=O)[C@H]([C@@H](C)O)NC1=O [caspofungin] (first compound 12.5 µM) | system: Candida albicans SNY425 biofilm
stdout: 0.0941

---

# System: Candida albicans SNY425 biofilm
# procedureSummary: biofilm OD600 with compound plus antifungal (OD600 (absorbance)); higher = more biofilm remaining
# testContext: assay detail: sustained inhibition (compound + antifungal during 90-min adherence and 24-h growth)
measureName: biofilm OD600
Lab note: write the figure by itself, no unit.

Reference set, count: 3
INSERT INTO results (compound, measurename, quantitativereadout) VALUES
  ('CCOC(=O)[C@H](CCc1ccccc1)N[C@@H](C)C(=O)N1CCC[C@H]1C(=O)O [Enalapril] + CC[C@H](C)C[C@H](C)CCCCCCCCC(=O)N[C@H]1C[C@@H](O)[C@@H](NCCN)NC(=O)[C@@H]2[C@@H](O)CCN2C(=O)[C@H]([C@H](O)CCN)NC(=O)[C@H]([C@H](O)[C@@H](O)c2ccc(O)cc2)NC(=O)[C@@H]2C[C@@H](O)CN2C(=O)[C@H]([C@@H](C)O)NC1=O [caspofungin] (first compound 12.5 µM)', 'biofilm OD600', 0.207),
  ('CC(NC(=O)C(Cc1ccccc1)NC(=O)OCc1ccccc1)C(=O)CF (stereo not given) + C[C@@H]1[C@H](O)[C@@H](C)/C=C/C=C/C=C/C=C/C=C/C=C/C=C/[C@H](O[C@@H]2O[C@H](C)[C@@H](O)[C@H](N)[C@@H]2O)C[C@@H]2O[C@](O)(C[C@@H](O)C[C@@H](O)[C@H](O)CC[C@@H](O)C[C@@H](O)CC(=O)O[C@H]1C)C[C@H](O)[C@H]2C(=O)O [amphotericin B] (first compound 12.5 µM)', 'biofilm OD600', 0.185),
  ('Nc1ccc(CC(CC(=O)O)C(=O)O)cc1 [4-Amino-D, L-benzylsuccinic acid] + OC(Cn1cncn1)(Cn1cncn1)c1ccc(F)cc1F [fluconazole] (first compound 12.5 µM)', 'biofilm OD600', 0.12);

stdin: # query: biofilm OD600 | item C[C@H](CS)C(=O)N1CCC[C@H]1C(=O)O [Captopril] + C[C@@H]1[C@H](O)[C@@H](C)/C=C/C=C/C=C/C=C/C=C/C=C/C=C/[C@H](O[C@@H]2O[C@H](C)[C@@H](O)[C@H](N)[C@@H]2O)C[C@@H]2O[C@](O)(C[C@@H](O)C[C@@H](O)[C@H](O)CC[C@@H](O)C[C@@H](O)CC(=O)O[C@H]1C)C[C@H](O)[C@H]2C(=O)O [amphotericin B] (first compound 12.5 µM) | system: Candida albicans SNY425 biofilm
stdout: 0.214

stdin: Same again, this time with CC(C)(C)NC(=O)[C@@H]1C[C@@H]2CCCC[C@@H]2CN1C[C@@H](O)[C@H](Cc1ccccc1)NC(=O)[C@H](CC(N)=O)NC(=O)c1ccc2ccccc2n1 [saquinavir] + CC[C@H](C)C[C@H](C)CCCCCCCCC(=O)N[C@H]1C[C@@H](O)[C@@H](NCCN)NC(=O)[C@@H]2[C@@H](O)CCN2C(=O)[C@H]([C@H](O)CCN)NC(=O)[C@H]([C@H](O)[C@@H](O)c2ccc(O)cc2)NC(=O)[C@@H]2C[C@@H](O)CN2C(=O)[C@H]([C@@H](C)O)NC1=O [caspofungin] (first compound 12.5 µM)
stdout: 0.042

---

# Test system: Candida albicans SNY425 biofilm
# procedureSummary: biofilm OD600 with compound plus antifungal (OD600 (absorbance)); higher = more biofilm remaining
# testContext: assay detail: disruption of 24-h mature biofilm (compound + antifungal for a second 24 h)
Where a name gives a salt, the structure may show the parent alone.
measureName: biofilm OD600
Lab note: write the figure by itself, no unit.

INSERT INTO assay_data (molecule, quantitativereadout) VALUES
  ('CC(C)CCNC(=O)[C@H](CC(C)C)NC(=O)[C@H]1O[C@@H]1C(=O)O + C[C@@H]1[C@H](O)[C@@H](C)/C=C/C=C/C=C/C=C/C=C/C=C/C=C/[C@H](O[C@@H]2O[C@H](C)[C@@H](O)[C@H](N)[C@@H]2O)C[C@@H]2O[C@](O)(C[C@@H](O)C[C@@H](O)[C@H](O)CC[C@@H](O)C[C@@H](O)CC(=O)O[C@H]1C)C[C@H](O)[C@H]2C(=O)O [amphotericin B] (first compound 12.5 µM)', 0.27),
  ('Cc1cccc(C)c1OCC(=O)N[C@@H](Cc1ccccc1)[C@@H](O)C[C@H](Cc1ccccc1)NC(=O)[C@H](C(C)C)N1CCCNC1=O [lopinavir] + C[C@@H]1[C@H](O)[C@@H](C)/C=C/C=C/C=C/C=C/C=C/C=C/C=C/[C@H](O[C@@H]2O[C@H](C)[C@@H](O)[C@H](N)[C@@H]2O)C[C@@H]2O[C@](O)(C[C@@H](O)C[C@@H](O)[C@H](O)CC[C@@H](O)C[C@@H](O)CC(=O)O[C@H]1C)C[C@H](O)[C@H]2C(=O)O [amphotericin B] (first compound 12.5 µM)', 0.246),
  ('CCOC(=O)c1ccc(OC(=O)CCCCCNC(=N)N)cc1 [Gabexate mesylate] + OC(Cn1cncn1)(Cn1cncn1)c1ccc(F)cc1F [fluconazole] (first compound 12.5 µM)', 0.267),
  ('CC(C)C[C@H](NP(=O)(O)O[C@@H]1O[C@@H](C)[C@H](O)[C@@H](O)[C@H]1O)C(=O)N[C@@H](Cc1c[nH]c2ccccc12)C(=O)O [Phosphoramidon] + C[C@@H]1[C@H](O)[C@@H](C)/C=C/C=C/C=C/C=C/C=C/C=C/C=C/[C@H](O[C@@H]2O[C@H](C)[C@@H](O)[C@H](N)[C@@H]2O)C[C@@H]2O[C@](O)(C[C@@H](O)C[C@@H](O)[C@H](O)CC[C@@H](O)C[C@@H](O)CC(=O)O[C@H]1C)C[C@H](O)[C@H]2C(=O)O [amphotericin B] (first compound 12.5 µM)', 0.28),
  ('C[C@H](CS)C(=O)N1CCC[C@H]1C(=O)O [Captopril] + C[C@@H]1[C@H](O)[C@@H](C)/C=C/C=C/C=C/C=C/C=C/C=C/C=C/[C@H](O[C@@H]2O[C@H](C)[C@@H](O)[C@H](N)[C@@H]2O)C[C@@H]2O[C@](O)(C[C@@H](O)C[C@@H](O)[C@H](O)CC[C@@H](O)C[C@@H](O)CC(=O)O[C@H]1C)C[C@H](O)[C@H]2C(=O)O [amphotericin B] (first compound 12.5 µM)', 0.285);

stdin: Give its biofilm OD600 value. Item: CC1CNc2c(cccc2S(=O)(=O)N[C@@H](CCCNC(=N)N)C(=O)N2CC[C@@H](C)C[C@@H]2C(=O)O)C1 (stereo partly specified) [Argatroban] + OC(Cn1cncn1)(Cn1cncn1)c1ccc(F)cc1F [fluconazole] (first compound 12.5 µM)
stdout: 0.286

stdin: Same again, this time with CCC[C@@]1(CCc2ccccc2)CC(O)=C([C@H](CC)c2cccc(NS(=O)(=O)c3ccc(C(F)(F)F)cn3)c2)C(=O)O1 [tipranavir] + OC(Cn1cncn1)(Cn1cncn1)c1ccc(F)cc1F [fluconazole] (first compound 12.5 µM)
stdout: 0.256
